Origin of the recorded values: patent US9598386B2

Counter-ions that a name gives are not always drawn.
property measured: melting point

Field: example entries. Status: answers known.
1) Cc1ccc(CS(=O)(=O)CCN(C)C)cc1
68 to 70 °C
2) O=S(=O)(CCN1CCCC1)Cc1cccc(F)c1
66 to 68 °C
3) C[N+](C)(C)CCS(=O)(=O)Cc1ccc(Br)cc1 (as salt: methane sulfonate)
187 to 188 °C

Hello, please tell me recorded melting point for this one: `C[N+]1(CCS(=O)(=O)Cc2ccc(Br)cc2)CCCC1.[I-]` 196 to 198 °C

Quick one: give measured melting point for `CN(C)CCS(=O)(=O)Cc1ccc(F)cc1` 50 to 52 °C
